Provide the recorded pIC50 for the entries that follow.
# system tested: recombinant human LRRK2 (catalytic domain only [amino acids 970-2527], GST-tagged) (Homo sapiens (Human))
# experiment notes: LRRK2 Enzymatic Assay
# Format: biochemical
# reported conditions: LRRKtide substrate, [32P]-ATP
pIC50: −log10 of the molar value.

• CC1(O)CCC(COc2nc(Nc3ccc(N4CCOCC4)cc3)ncc2F)CC1 (centres unmarked) = 6.70 to 7.30
• COc1cnc(Nc2ccc(N3CCOCC3)cc2)nc1OC[C@H]1CC[C@H](CN)CC1 = > 7.30
• C[C@@H]1CN(c2ccc(Nc3ncc(F)c(OCC4CCNCC4F)n3)cc2)C[C@H](C)O1 (single isomer, unassigned) [Example 168] = 6.70 to 7.30
• Cc1nn(C2CC(C#N)C2)cc1Nc1ncc(Cl)c(OCC2(F)CN(C)C2)n1 (centres unmarked) = < 6.40
• FC(F)(F)CN[C@H]1CC[C@H](COc2ccnc(Nc3ccc(N4CCOCC4)cc3)n2)CC1 = 6.70 to 7.30
• OC1(C(F)(F)F)CCC(COc2nc(Nc3ccc(N4CCOCC4)cc3)ncc2F)CC1 (centres unmarked) = 6.70 to 7.30
• CC(=O)N1CCC(COc2nc(Nc3ccc(N4CCOCC4)cc3)ncc2F)C(F)C1 (single isomer, unassigned) [Example 173] = > 7.30

Next item in the queue.
Data point: Cc1nn(C(C)(C)C#N)cc1Nc1ncc(Cl)c(OCC2CC(F)(F)C2)n1 ; pIC50 = > 7.30

---

Exercise: for every item that follows, state its recorded pIC50.
# system tested: recombinant human LRRK2 (catalytic domain only [amino acids 970-2527], GST-tagged) (Homo sapiens (Human))
# experiment notes: LRRK2 Enzymatic Assay
# reported conditions: LRRKtide substrate, [32P]-ATP
# Description: […]
pIC50: −log10 of the molar value.

Consider the following items and state reported pIC50 for each.
1. Cc1nn(C(C)(C)C#N)cc1Nc1ncc(Cl)c(OCC2CC3(CNC3)C2)n1
2. CN1CCC(F)(COc2nc(Nc3ccc(N4CCOCC4)cc3)ncc2F)CC1
3. C[C@@H]1CN(c2ccc(Nc3nc(Cl)c(F)c(OC[C@H]4CC[C@H](O)CC4)n3)cc2)C[C@H](C)O1
4. O[C@H]1CC[C@H](COc2nc(Nc3cnn(C4COC4)c3)ncc2F)CC1
5. CC(=O)N[C@H]1CC[C@H](COc2nc(Nc3cnn(CCF)c3)ncc2F)CC1
6. Cc1nn(C(C)(C)C#N)cc1Nc1ncc(F)c(OCC2CCNCC2F)n1 (single isomer, unassigned) [Example 170]
7. C[C@@H]1CN(c2ccc(Nc3ncc(F)c(OC[C@H]4CC[C@H](OC(F)F)CC4)n3)cc2)C[C@H](C)O1

Result string:
1: > 7.30; 2: < 6.40; 3: < 6.40; 4: 6.40 to 6.70; 5: > 7.30; 6: 6.70 to 7.30; 7: 6.40 to 6.70

For every listed record, write down its pIC50.
1. O[C@H]1CC[C@H](COc2nc(Nc3cnn(CC(F)(F)F)c3)ncc2F)CC1
2. Cc1nn(C2CC2)cc1Nc1ncc(F)c(OC[C@H]2CC[C@H](O)CC2)n1
3. Cc1nn(C(C)(C)C#N)cc1Nc1ncc(Cl)c(OCC2CCN(C(=O)C(F)F)CC2)n1
4. CN[C@H]1CC[C@H](COc2nc(Nc3cn(C(C)(C)C#N)nc3C)ncc2C)CC1
5. COc1nn(C2CC2)cc1Nc1ncc(F)c(OC[C@H]2CC[C@H](NC(C)=O)CC2)n1
6. FC(F)(F)CN1CCC(COc2nc(Nc3ccc(N4CCOCC4)cc3)ncc2Cl)CC1
7. Fc1cnc(Nc2ccc(N3CCOCC3)cc2)nc1OCC1CCC(OC(F)(F)F)CC1 (single isomer, unassigned) [Example 282]
8. CC(C)(O)[C@H]1CC[C@H](COc2ccnc(Nc3ccc(N4CCOCC4)cc3)n2)CC1

Result string:
["6.70 to 7.30", "6.70 to 7.30", "> 7.30", "> 7.30", "> 7.30", "< 6.40", "< 6.40", "6.70 to 7.30"]

Note to self: pIC50 recorded for C[C@@H]1CN(c2ccc(Nc3ncc(F)c(OC[C@@H]4CCC[C@@H](O)C4)n3)cc2)C[C@H](C)O1 was > 7.30

---

# system tested: recombinant human LRRK2 (catalytic domain only [amino acids 970-2527], GST-tagged) (Homo sapiens (Human))
# experiment notes: LRRK2 Enzymatic Assay
# reported conditions: LRRKtide substrate, [32P]-ATP
assay readout: IC50

Answered cases to consult:
- OC1CCC(COc2nc(Nc3ccc(N4CCOCC4)cc3)ncc2F)CC1 (stereo not shown): 50 to 200 nM
- Cc1nn(C(C)(C)C#N)cc1Nc1ncc(F)c(OCC2(F)CCNCC2)n1: < 50 nM
- CC(=O)NC12C3C4C1C1C2C3C41COc1ccnc(Nc2ccc(N3C[C@@H](C)O[C@@H](C)C3)cc2)n1 (stereo partly shown): 200 to 400 nM

IC50 measured on COc1cc(C(=O)N2CCOCC2)c(F)cc1Nc1ncc(F)c(OC[C@H]2CC[C@H](NC(C)=O)CC2)n1 = 50 to 200 nM

---

Would you kindly list IC50 for each of these compounds?
# system tested: recombinant human LRRK2 (catalytic domain only [amino acids 970-2527], GST-tagged) (Homo sapiens (Human), UniProt Q5S007)
# Sequence (Q5S007 970-2527): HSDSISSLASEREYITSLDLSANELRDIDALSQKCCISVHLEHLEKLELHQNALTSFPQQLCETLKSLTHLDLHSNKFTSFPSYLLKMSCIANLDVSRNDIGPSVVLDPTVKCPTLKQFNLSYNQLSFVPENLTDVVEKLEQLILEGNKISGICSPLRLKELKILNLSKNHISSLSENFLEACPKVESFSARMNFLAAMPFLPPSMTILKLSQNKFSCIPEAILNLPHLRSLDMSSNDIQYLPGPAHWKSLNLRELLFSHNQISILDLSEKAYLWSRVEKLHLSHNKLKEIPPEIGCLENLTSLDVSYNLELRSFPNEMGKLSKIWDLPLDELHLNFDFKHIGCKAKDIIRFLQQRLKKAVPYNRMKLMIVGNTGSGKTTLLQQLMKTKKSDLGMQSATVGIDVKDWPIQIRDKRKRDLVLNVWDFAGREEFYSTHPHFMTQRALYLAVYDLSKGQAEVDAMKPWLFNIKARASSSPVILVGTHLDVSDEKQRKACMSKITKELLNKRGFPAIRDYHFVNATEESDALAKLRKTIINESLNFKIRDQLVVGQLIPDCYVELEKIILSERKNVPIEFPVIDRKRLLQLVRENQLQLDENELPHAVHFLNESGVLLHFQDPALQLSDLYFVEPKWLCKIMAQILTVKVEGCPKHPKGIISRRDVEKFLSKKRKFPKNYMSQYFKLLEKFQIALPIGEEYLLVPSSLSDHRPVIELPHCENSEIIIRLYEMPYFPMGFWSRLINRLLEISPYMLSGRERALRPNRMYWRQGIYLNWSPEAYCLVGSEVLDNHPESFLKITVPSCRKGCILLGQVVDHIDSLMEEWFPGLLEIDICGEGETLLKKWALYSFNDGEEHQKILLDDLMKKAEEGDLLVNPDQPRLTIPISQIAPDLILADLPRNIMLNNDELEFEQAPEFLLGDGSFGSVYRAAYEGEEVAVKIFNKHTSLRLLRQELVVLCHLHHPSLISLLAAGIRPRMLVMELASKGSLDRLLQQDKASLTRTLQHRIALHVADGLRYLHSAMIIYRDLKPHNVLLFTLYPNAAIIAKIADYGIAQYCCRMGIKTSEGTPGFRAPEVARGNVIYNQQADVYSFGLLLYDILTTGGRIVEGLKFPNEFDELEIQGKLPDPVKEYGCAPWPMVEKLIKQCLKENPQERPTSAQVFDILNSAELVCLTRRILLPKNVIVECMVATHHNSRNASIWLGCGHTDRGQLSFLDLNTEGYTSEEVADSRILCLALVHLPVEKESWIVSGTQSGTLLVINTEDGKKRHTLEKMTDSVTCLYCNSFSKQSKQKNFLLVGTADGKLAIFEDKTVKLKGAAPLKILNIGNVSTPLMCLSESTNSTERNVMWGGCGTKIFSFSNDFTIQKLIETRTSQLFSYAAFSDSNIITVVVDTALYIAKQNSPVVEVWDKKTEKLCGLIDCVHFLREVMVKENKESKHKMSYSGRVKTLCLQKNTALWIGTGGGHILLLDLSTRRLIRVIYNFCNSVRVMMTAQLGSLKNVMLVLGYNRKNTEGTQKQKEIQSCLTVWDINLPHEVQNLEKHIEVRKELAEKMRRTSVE
# experiment notes: LRRK2 Enzymatic Assay
# reported conditions: LRRKtide substrate, [32P]-ATP

* CCn1cc(Nc2ncc(F)c(OC[C@H]3CC[C@H](NC(C)=O)CC3)n2)cn1 | < 50 nM
* O=C(N[C@H]1CC[C@H](COc2nc(Nc3cccc(N4CCOCC4)c3)ncc2Cl)CC1)C(F)F | < 50 nM
* CC(=O)N[C@H]1CC[C@H](COc2nc(Nc3ccc(N4CCOCC4)cc3)ncc2Cl)CC1 | < 50 nM
* CN[C@H]1CC[C@@H](COc2nc(Nc3cn(C4CC(C#N)C4)nc3C)ncc2Cl)C1 (some centres unmarked) | < 50 nM

For each listed entry, give its IC50.
1. CC(=O)N[C@H]1C[C@H](COc2ccnc(Nc3ccc(N4CCOCC4)cc3)n2)C1
2. CC(=O)N[C@H]1CC[C@H](COc2nc(Nc3ccc(N4CCOCC4)cc3)ncc2C2CC2)CC1
3. Cc1nn(C(C)(C)C#N)cc1Nc1ncc(F)c(OCC2CCNCC2)n1
4. CCO[C@H]1CC[C@@H](COc2nc(Nc3ccc(N4C[C@@H](C)O[C@@H](C)C4)cc3)ncc2F)CC1

Result string:
1: > 400 nM; 2: 50 to 200 nM; 3: 50 to 200 nM; 4: 50 to 200 nM

---

# system tested: recombinant human LRRK2 (catalytic domain only [amino acids 970-2527], GST-tagged) (Homo sapiens (Human))
# experiment notes: LRRK2 Enzymatic Assay
# reported conditions: LRRKtide substrate, [32P]-ATP
Consider the following molecules; for each one, report its IC50.

Recorded IC50, per entry:
* N[C@H]1CC[C@H](COc2nc(Nc3ccc(N4CCOCC4)cc3)ncc2F)CC1 [Example 10] | < 50 nM
* CC(=O)N[C@H]1CC[C@H](COc2ccnc(Nc3cn(C4CC(C#N)C4)nc3C)n2)CC1 (some centres unmarked) [Example 75] | > 400 nM
* Cc1nn(C(C)(C)C#N)cc1Nc1nc(C)c(F)c(OC[C@H]2CC[C@H](O)CC2)n1 [Example 267] | > 400 nM
* O=S1(=O)CCC(COc2nc(Nc3ccc(N4CCOCC4)cc3)ncc2F)CC1 [Example 287] | > 400 nM
* OC1CCC(COc2ccnc(Nc3ccc(N4CCOCC4)cc3)n2)CC1 (centres unmarked) [Example 117] | 200 to 400 nM
* O[C@@H]1CC[C@H](COc2nc(Nc3ccc(N4CCOCC4)cc3)ncc2F)C[C@H]1F [Example 258] | 50 to 200 nM
* CN[C@H]1CC[C@H](COc2nc(Nc3cc(F)c(C(=O)N4CCOCC4)cc3OC)ncc2OC)CC1 [Example 36] | < 50 nM

Next molecule, IC50 to be filled in.
Memo: CC(=O)N[C@H]1CC[C@H](COc2nc(Nc3cnn(C(C)C)c3)ncc2F)CC1 [Example 185] , reported IC50: < 50 nM

---

# system tested: recombinant human LRRK2 (catalytic domain only [amino acids 970-2527], GST-tagged) (Homo sapiens (Human))
# experiment notes: LRRK2 Enzymatic Assay
# reported conditions: LRRKtide substrate, [32P]-ATP
pIC50: −log10 of the molar value.
assay readout: pIC50

* CC(=O)N[C@H]1CC[C@H](COc2nc(Nc3cnn(C)c3)ncc2F)CC1 | 6.70 to 7.30
* CC(=O)N[C@H]1CC[C@H](COc2nc(Nc3cnn(C(F)(F)F)c3)ncc2F)CC1 | 6.40 to 6.70
* CC(N[C@H]1CC[C@H](COc2nc(Nc3ccc(N4CCOCC4)cc3)ncc2F)CC1)C(F)(F)F (some centres unmarked) | 6.40 to 6.70
* CC(C)n1cc(Nc2ncc(F)c(OCC3CCNCC3(F)F)n2)cn1 (centres unmarked) | > 7.30
* Cc1nn(C(C)(C)C#N)cc1Nc1ncc(F)c(OCC2CS(=O)(=O)C2)n1 | < 6.40

Please report pIC50 for every entry that follows.
1. Cc1nn(C(C)(C)C#N)cc1Nc1ncc(Cl)c(OCC2CCC(C)(O)CC2)n1 (centres unmarked)
2. COc1nn(C)cc1Nc1ncc(F)c(OC[C@H]2CC[C@H](O)CC2)n1
3. Cc1nn(C(C)(C)C#N)cc1Nc1ncc(Cl)c(OC[C@H]2CC[C@H](NC(=O)C(F)F)CC2)n1

Result string:
> 7.30
6.40 to 6.70
> 7.30
